This collection of values is drawn from the supplement of paper PMC9112550.

System: Escherichia coli TOP10
protocol-details: shrunken log2 fold change of peptide-encoding DNA abundance (4.5 h post-induction vs induction); higher = less antimicrobial activity (less host growth inhibition)
conditions: time post-induction: 4.5 h; library: site-saturation at positions 5, 18, 19, 20
The threshold is inclusive: shrunken log2 fold change of exactly -0.2 counts as Satisfied; values below receive Not satisfied.

## Input Decide: shrunken log2 fold change of RRIRTRPPRLPRPRPRPPVYPRP >= -0.2?
## Output Satisfied

## Input Decide: shrunken log2 fold change of RRIRSRPPRLPRPRPRPILEPRP >= -0.2?
## Output Satisfied

## Input Decide: shrunken log2 fold change of RRIRYRPPRLPRPRPRPLFIPRP >= -0.2?
## Output Not satisfied

## Input Decide: shrunken log2 fold change of RRIRDRPPRLPRPRPRPYCTPRP >= -0.2?
## Output Not satisfied

## Input Decide: shrunken log2 fold change of RRIRLRPPRLPRPRPRPCYVPRP >= -0.2?
## Output Not satisfied

## Input Decide: shrunken log2 fold change of RRIRGRPPRLPRPRPRPAHHPRP >= -0.2?
## Output Satisfied

## Input Decide: shrunken log2 fold change of RRIRPRPPRLPRPRPRPGTLPRP >= -0.2?
## Output Satisfied

## Input Decide: shrunken log2 fold change of RRIRMRPPRLPRPRPRPMRQPRP >= -0.2?
## Output Satisfied

## Input Decide: shrunken log2 fold change of RRIRRRPPRLPRPRPRPWEFPRP >= -0.2?
## Output Satisfied

## Input Decide: shrunken log2 fold change of RRIRTRPPRLPRPRPRPSEMPRP >= -0.2?
## Output Satisfied

## Input Decide: shrunken log2 fold change of RRIRNRPPRLPRPRPRPWDVPRP >= -0.2?
## Output Satisfied

## Input Decide: shrunken log2 fold change of RRIRKRPPRLPRPRPRPCQCPRP >= -0.2?
## Output Satisfied

## Input Decide: shrunken log2 fold change of RRIRSRPPRLPRPRPRPGTIPRP >= -0.2?
## Output Not satisfied

## Input Decide: shrunken log2 fold change of RRIRCRPPRLPRPRPRPCWSPRP >= -0.2?
## Output Not satisfied

## Input Decide: shrunken log2 fold change of RRIRTRPPRLPRPRPRPSHPPRP >= -0.2?
## Output Not satisfied

## Input Decide: shrunken log2 fold change of RRIRGRPPRLPRPRPRPAANPRP >= -0.2?
## Output Satisfied

## Input Decide: shrunken log2 fold change of RRIRPRPPRLPRPRPRPGDHPRP >= -0.2?
## Output Satisfied

## Input Decide: shrunken log2 fold change of RRIRERPPRLPRPRPRPQRTPRP >= -0.2?
## Output Not satisfied

----------
Tested on: Escherichia coli TOP10
protocol-details: shrunken log2 fold change of peptide-encoding DNA abundance (4.5 h post-induction vs induction); higher = less antimicrobial activity (less host growth inhibition)
conditions: time post-induction: 4.5 h; library: site-saturation at positions 5, 18, 19, 20
measurement-type: shrunken log2 fold change
Format: numeric value only, no unit, no commentary.

## Input # query: shrunken log2 fold change of entry RRIRKRPPRLPRPRPRPMISPRP
## Output 0.18

## Input # query: shrunken log2 fold change of entry RRIRTRPPRLPRPRPRPVPAPRP
## Output 0.35

## Input # query: shrunken log2 fold change of entry RRIRQRPPRLPRPRPRPMFDPRP
## Output -0.109

## Input # query: shrunken log2 fold change of entry RRIRSRPPRLPRPRPRPLFVPRP
## Output -0.188

----------
System: Escherichia coli TOP10
protocol-details: shrunken log2 fold change of peptide-encoding DNA abundance (4.5 h post-induction vs induction); higher = less antimicrobial activity (less host growth inhibition)
conditions: time post-induction: 4.5 h; library: site-saturation at positions 5, 18, 19, 20
measurement-type: shrunken log2 fold change
Format: numeric value only, no unit, no commentary.

## Input # query: shrunken log2 fold change of entry RRIRKRPPRLPRPRPRPPPDPRP
## Output 0.906

## Input # query: shrunken log2 fold change of entry RRIRIRPPRLPRPRPRPPVCPRP
## Output 0.108

## Input # query: shrunken log2 fold change of entry RRIRQRPPRLPRPRPRPQVNPRP
## Output -0.499

## Input # query: shrunken log2 fold change of entry RRIRPRPPRLPRPRPRPLKQPRP
## Output 0.0902

## Input # query: shrunken log2 fold change of entry RRIRQRPPRLPRPRPRPAVNPRP
## Output -0.0181

## Input # query: shrunken log2 fold change of entry RRIRIRPPRLPRPRPRPKDAPRP
## Output 0.176

## Input # query: shrunken log2 fold change of entry RRIRDRPPRLPRPRPRPPMKPRP
## Output 0.131

----------
Tested on: Escherichia coli TOP10
protocol-details: shrunken log2 fold change of peptide-encoding DNA abundance (4.5 h post-induction vs induction); higher = less antimicrobial activity (less host growth inhibition)
conditions: time post-induction: 4.5 h; library: site-saturation at positions 5, 18, 19, 20
For each of the sequences below, state its shrunken log2 fold change.
Format: numeric value only, no unit, no commentary.

## Input # query: shrunken log2 fold change of entry RRIRMRPPRLPRPRPRPIGQPRP
## Output 0.00911

## Input # query: shrunken log2 fold change of entry RRIRGRPPRLPRPRPRPWCIPRP
## Output -0.153

## Input # query: shrunken log2 fold change of entry RRIRQRPPRLPRPRPRPFIAPRP
## Output -0.277

## Input # query: shrunken log2 fold change of entry RRIRQRPPRLPRPRPRPHFQPRP
## Output -0.108

----------
System: Escherichia coli TOP10;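 further: peptides expressed intracellularly from a pBAD plasmid library in pooled LB shake-flask culture, induced with 0.3% L-arabinose, DNA abundance read by NGS, three biological replicates, DESeq2 with apeglm shrinkage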
protocol-details: shrunken log2 fold change of peptide-encoding DNA abundance (4.5 h post-induction vs induction); higher = less antimicrobial activity (less host growth inhibition)
conditions: time post-induction: 4.5 h; library: site-saturation at positions 5, 18, 19, 20
Please map values of shrunken log2 fold change to classes as shown: LOW = under -0.05, MEDIUM = from -0.05 up to 0.2, HIGH = 0.2 and over

## Input // return the class label for RRIRQRPPRLPRPRPRPFQPPRP
## Output MEDIUM

## Input // return the class label for RRIRWRPPRLPRPRPRPKLMPRP
## Output HIGH

## Input // return the class label for RRIRCRPPRLPRPRPRPNFTPRP
## Output LOW

## Input // return the class label for RRIRPRPPRLPRPRPRPWQIPRP
## Output HIGH

## Input // return the class label for RRIRSRPPRLPRPRPRPRMHPRP
## Output MEDIUM

## Input // return the class label for RRIRKRPPRLPRPRPRPIMRPRP
## Output MEDIUM

## Input // return the class label for RRIRMRPPRLPRPRPRPRAIPRP
## Output HIGH

## Input // return the class label for RRIRWRPPRLPRPRPRPKKFPRP
## Output MEDIUM

## Input // return the class label for RRIRRRPPRLPRPRPRPEAHPRP
## Output MEDIUM

## Input // return the class label for RRIRWRPPRLPRPRPRPKVMPRP
## Output LOW

## Input // return the class label for RRIRCRPPRLPRPRPRPMRIPRP
## Output HIGH

## Input // return the class label for RRIRTRPPRLPRPRPRPPWEPRP
## Output HIGH

## Input // return the class label for RRIRCRPPRLPRPRPRPFPWPRP
## Output LOW

## Input // return the class label for RRIRIRPPRLPRPRPRPHGPPRP
## Output MEDIUM

## Input // return the class label for RRIRSRPPRLPRPRPRPFRRPRP
## Output LOW

## Input // return the class label for RRIRFRPPRLPRPRPRPQWPPRP
## Output MEDIUM

## Input // return the class label for RRIRCRPPRLPRPRPRPKIPPRP
## Output LOW

## Input // return the class label for RRIRYRPPRLPRPRPRPTSQPRP
## Output MEDIUM

## Input // return the class label for RRIRDRPPRLPRPRPRPPADPRP
## Output HIGH

## Input // return the class label for RRIRARPPRLPRPRPRPISSPRP
## Output LOW

## Input // return the class label for RRIRHRPPRLPRPRPRPGCHPRP
## Output LOW

## Input // return the class label for RRIRGRPPRLPRPRPRPGMVPRP
## Output HIGH

## Input // return the class label for RRIRHRPPRLPRPRPRPQVYPRP
## Output LOW

## Input // return the class label for RRIRNRPPRLPRPRPRPASKPRP
## Output MEDIUM

## Input // return the class label for RRIRLRPPRLPRPRPRPHNEPRP
## Output LOW

## Input // return the class label for RRIRVRPPRLPRPRPRPKRLPRP
## Output MEDIUM

## Input // return the class label for RRIRHRPPRLPRPRPRPRYPPRP
## Output MEDIUM

## Input // return the class label for RRIRGRPPRLPRPRPRPPHIPRP
## Output HIGH

## Input // return the class label for RRIRMRPPRLPRPRPRPWLMPRP
## Output MEDIUM

## Input // return the class label for RRIRRRPPRLPRPRPRPKVGPRP
## Output LOW

## Input // return the class label for RRIRDRPPRLPRPRPRPVWQPRP
## Output HIGH

## Input // return the class label for RRIRWRPPRLPRPRPRPEGMPRP
## Output HIGH

## Input // return the class label for RRIRNRPPRLPRPRPRPDLNPRP
## Output HIGH

## Input // return the class label for RRIRWRPPRLPRPRPRPSDRPRP
## Output LOW

## Input // return the class label for RRIRMRPPRLPRPRPRPWCEPRP
## Output MEDIUM

## Input // return the class label for RRIRSRPPRLPRPRPRPWCDPRP
## Output LOW

## Input // return the class label for RRIRERPPRLPRPRPRPTATPRP
## Output HIGH

## Input // return the class label for RRIRMRPPRLPRPRPRPHRMPRP
## Output MEDIUM
